molecular target: Enoyl-[acyl-carrier-protein] reductase [NADH] (Mycobacterium tuberculosis, UniProt P9WGR1); test: Inhibition of Mycobacterium tuberculosis full length inhA expressed in Escherichia coli BL21 preincubated for 15 mins by fluorescence based assay in presence of NADH
Sequence (P9WGR1 whole entry): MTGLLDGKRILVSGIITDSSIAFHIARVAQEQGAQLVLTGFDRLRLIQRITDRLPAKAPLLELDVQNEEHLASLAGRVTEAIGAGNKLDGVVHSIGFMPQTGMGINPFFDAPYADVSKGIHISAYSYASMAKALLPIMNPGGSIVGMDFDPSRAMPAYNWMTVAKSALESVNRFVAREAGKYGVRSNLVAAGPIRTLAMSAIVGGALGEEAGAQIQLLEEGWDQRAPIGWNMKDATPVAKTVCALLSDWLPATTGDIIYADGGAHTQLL
pIC50: −log10 of the molar value.

compound	value-operator	pIC50
COC(=O)c1cnc2ccc(C#N)cc2c1NCCCc1ccccc1	=	7.70
Cc1csc(C(C)(O)c2nnc(NCC3CN(Cc4c(F)cccc4F)C(=O)O3)s2)n1 (racemic)	=	6.40
Cc1csc(C(C)(O)c2nnc(Nc3cc(C4CC4)n(Cc4c(F)cccc4F)n3)s2)n1 (racemic)	=	6.01
Cc1csc(C(C)(O)c2nnc(NC(=O)c3ccn(Cc4c(F)cccc4F)n3)s2)n1 (racemic)	=	4.47
Cc1csc(C(C)(O)c2nnc(Nc3ncn(Cc4c(F)cccc4F)n3)s2)n1 (racemic)	=	7.52
Cc1csc([C@](C)(O)c2nnc(Nc3ccn(Cc4c(F)cccc4F)n3)s2)n1	=	8.52
Cc1csc(C(C)(O)c2nnc(Nc3cccc(Cc4c(F)cccc4F)n3)s2)n1 (racemic)	>	8.70
Cc1csc(C(C)(O)c2nnc(NC(=O)Cc3c(F)cccc3F)s2)n1 (racemic)	=	6.70
Cc1csc(C(C)(O)c2nnc(Nc3nccc(Cc4c(F)cccc4F)n3)s2)n1 (racemic)	>	8.70
O=C1CC(c2nc3ccccc3n2Cc2ccccc2)CN1C1CCCCC1 (configuration not stated)	=	6.00
Cc1csc(C(C)(O)c2nnc(Nc3cnn(Cc4c(F)cccc4F)c3)s2)n1 (racemic)	=	6.63
Cc1csc(C(C)(O)c2nnc(Nc3ccn(Cc4c(F)cccc4F)n3)s2)n1 (racemic)	=	8.40

* * *

molecular target: 5-hydroxytryptamine receptor 2B (Homo sapiens, UniProt P41595)
Sequence (P41595 whole entry): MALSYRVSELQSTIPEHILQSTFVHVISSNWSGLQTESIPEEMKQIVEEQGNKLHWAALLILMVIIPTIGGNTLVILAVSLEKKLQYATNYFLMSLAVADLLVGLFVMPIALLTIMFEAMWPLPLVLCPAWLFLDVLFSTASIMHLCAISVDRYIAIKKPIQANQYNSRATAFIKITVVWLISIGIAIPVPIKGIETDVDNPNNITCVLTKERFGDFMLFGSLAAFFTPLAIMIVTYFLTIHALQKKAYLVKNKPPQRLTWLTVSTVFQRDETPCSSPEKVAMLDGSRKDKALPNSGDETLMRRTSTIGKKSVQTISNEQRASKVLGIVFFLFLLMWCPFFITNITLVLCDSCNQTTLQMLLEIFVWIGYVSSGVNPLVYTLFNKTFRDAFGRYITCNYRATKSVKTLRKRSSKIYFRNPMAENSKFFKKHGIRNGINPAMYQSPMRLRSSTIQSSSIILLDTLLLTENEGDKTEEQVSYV

compound	experimental-system	IC50
Cc1csc(C(C)(O)c2nnc(NC(=O)Cc3c(F)cccc3F)s2)n1 (racemic)	5-hydroxytryptamine receptor 2B (Homo sapiens, UniProt P41595)	64 µM

* * *

target: Enoyl-[acyl-carrier-protein] reductase [NADH] (Mycobacterium tuberculosis, UniProt P9WGR1); test: Inhibition of wild type Mycobacterium tuberculosis inhA
pIC50: −log10 of the molar value.

structure-smiles-string	experimental-system	pIC50
CCCCCCc1ccc(Oc2ccccc2C)c(O)c1	Enoyl-[acyl-carrier-protein] reductase [NADH] (Mycobacterium tuberculosis, UniProt P9WGR1)	7.66

* * *

biological target: Adenosine receptor A1 (Homo sapiens, UniProt P30542)
Sequence (P30542 whole entry): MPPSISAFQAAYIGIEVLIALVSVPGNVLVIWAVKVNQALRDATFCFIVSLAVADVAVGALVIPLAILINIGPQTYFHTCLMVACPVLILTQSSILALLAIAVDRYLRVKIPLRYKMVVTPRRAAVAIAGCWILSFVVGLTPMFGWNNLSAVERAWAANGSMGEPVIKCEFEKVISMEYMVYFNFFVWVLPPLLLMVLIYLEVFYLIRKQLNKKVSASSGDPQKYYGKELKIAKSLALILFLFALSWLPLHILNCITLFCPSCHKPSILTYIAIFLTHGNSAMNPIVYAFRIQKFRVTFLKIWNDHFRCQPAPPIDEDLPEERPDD
pIC50: −log10 of the molar value.

compound	experimental-system	pIC50
Cc1csc(C(C)(O)c2nnc(NC(=O)Cc3c(F)cccc3F)s2)n1 (racemic)	Adenosine receptor A1 (Homo sapiens, UniProt P30542)	4.68

Data credit: ChEMBL document CHEMBL3085704
